AUC(0-t) values for the compounds below.
- experimentalDetails: Pharmacokinetics in ICR mice after intravenous and intragastric administration
- Format: in vivo
- appliedConditions: male, ICR, mouse, plasma, po, 5 mg/kg, ICR mice, PO 5 mg/kg, individual animal; read-out: AUC(0-t)
- Procedure: Experimental Example 3 Determination of the Pharmacokinetics of the Mdm2 Inhibitors of the Present Invention in Mice […] The collected plasma was stored at −80° C. before analysis. The plasma sample was analyzed by LC-MS/MS, and the sample was pretreated by protein precipitation method. […] The lowest quantification limit was 1 ng/mL. […]
Answers without a unit are incomplete; give the number and then its unit.

Some compounds with known AUC(0-t) results, for comparison:
{"structureString": "COc1ncc(-c2nc3c(n2C(C)C)[C@@]2(C(=O)Nc4cc(Cl)ccc42)N(c2cc(Cl)ccc2F)C3=O)c(OC)n1", "measured": "7.9 µg·h/mL"}
{"structureString": "COc1cc(OC)c(-c2nc3c(n2C(C)C)[C@@]2(C(=O)Nc4cc(Cl)ccc42)N(c2cc(Cl)ccc2F)C3=O)cn1", "measured": "6.07 µg·h/mL"}

In plain terms, `COc1cc(C(C)C)ccc1-c1nc2c(n1C(C)C)[C@@]1(C(=O)Nc3cc(Cl)ccc31)N(c1cc(Cl)ccc1C)C2=O` has a documented AUC(0-t) of 6.02 µg·h/mL

###

- experimentalDetails: Pharmacokinetics in ICR mice after intravenous and intragastric administration
- Assay type: in vivo
- appliedConditions: male, ICR, mouse, plasma, iv, 2 mg/kg, IV 2 mg/kg, ICR mice, individual animal
API: label(entry) gives Y if the entry's clearance is strictly smaller than 10 mL/min/kg; on equality or larger values it gives N.

{"compound": "COc1ncc(-c2nc3c(n2C(C)C)[C@@]2(C(=O)Nc4cc(Cl)ccc42)N(c2cccc(Cl)c2)C3=O)c(OC)n1", "className": "N"}
{"compound": "COc1ccc(-c2nc3c(n2C(C)C)[C@@]2(C(=O)Nc4cc(Cl)ccc42)N(c2cc(Cl)ccc2C)C3=O)c(OC)c1", "className": "Y"}

**Query** Determine whether this compound shows clearance lower than 10 mL/min/kg (ties excluded): `COc1cc(OC)c(-c2nc3c(n2C(C)C)[C@@]2(C(=O)Nc4cc(Cl)ccc42)N(c2cc(Cl)ccc2C)C3=O)cn1`
**Result** N

**Query** Determine whether this compound shows clearance lower than 10 mL/min/kg (ties excluded): `COc1ncc(-c2nc3c(n2C(C)C)[C@@]2(C(=O)Nc4cc(Cl)ccc42)N(c2cc(Cl)ccc2C)C3=O)c(OC)n1`
**Result** N

**Query** Determine whether this compound shows clearance lower than 10 mL/min/kg (ties excluded): COc1ncc(-c2nc3c(n2C(C)C)[C@H](c2ccc(Cl)cc2)N(c2cc(Cl)cn(C)c2=O)C3=O)c(OC)n1 [HDM201, reference compound]
**Result** N

**Query** Determine whether this compound shows clearance lower than 10 mL/min/kg (ties excluded): `COc1cc(N(C)C)ccc1-c1nc2c(n1C(C)C)[C@@]1(C(=O)Nc3cc(Cl)ccc31)N(c1cc(Cl)ccc1C)C2=O`
**Result** Y

###

- experimentalDetails: Pharmacokinetics in ICR mice after intravenous and intragastric administration
- Type: in vivo
- appliedConditions: male, ICR, mouse, plasma, iv, 2 mg/kg, IV 2 mg/kg, ICR mice, Mean
recordedMetric: log10 of clearance (log10 of the value in mL/min/kg)
Scale type: logarithmic (base 10). Underlying clearance unit: mL/min/kg.

{"compound": "COc1cc(OC)c(-c2nc3c(n2C(C)C)[C@@]2(C(=O)Nc4cc(Cl)ccc42)N(c2cc(Cl)ccc2C)C3=O)cn1", "log10 of clearance": 0.94}
{"compound": "COc1ncc(-c2nc3c(n2C(C)C)[C@@]2(C(=O)Nc4cc(Cl)ccc42)N(c2cc(Cl)ccc2C)C3=O)c(OC)n1", "log10 of clearance": 1.35}
{"compound": "COc1ncc(-c2nc3c(n2C(C)C)[C@H](c2ccc(Cl)cc2)N(c2cc(Cl)cn(C)c2=O)C3=O)c(OC)n1 [HDM201, reference compound]", "log10 of clearance": 1.72}
{"compound": "COc1cc(N(C)C)ccc1-c1nc2c(n1C(C)C)[C@@]1(C(=O)Nc3cc(Cl)ccc31)N(c1cc(Cl)ccc1C)C2=O", "log10 of clearance": 0.64}
{"compound": "COc1ccc(-c2nc3c(n2C(C)C)[C@@]2(C(=O)Nc4cc(Cl)ccc42)N(c2cc(Cl)ccc2C)C3=O)c(OC)c1", "log10 of clearance": 0.94}

Continue with the compound presented below.
In plain terms, `COc1ncc(-c2nc3c(n2C(C)C)[C@@]2(C(=O)Nc4cc(Cl)ccc42)N(c2cccc(Cl)c2)C3=O)c(OC)n1` has a documented log10 of clearance of 1.68

###

- measuredTarget: MDM2 (Homo sapiens)
- Construct: made in house
- Sequence (Q00987 whole entry): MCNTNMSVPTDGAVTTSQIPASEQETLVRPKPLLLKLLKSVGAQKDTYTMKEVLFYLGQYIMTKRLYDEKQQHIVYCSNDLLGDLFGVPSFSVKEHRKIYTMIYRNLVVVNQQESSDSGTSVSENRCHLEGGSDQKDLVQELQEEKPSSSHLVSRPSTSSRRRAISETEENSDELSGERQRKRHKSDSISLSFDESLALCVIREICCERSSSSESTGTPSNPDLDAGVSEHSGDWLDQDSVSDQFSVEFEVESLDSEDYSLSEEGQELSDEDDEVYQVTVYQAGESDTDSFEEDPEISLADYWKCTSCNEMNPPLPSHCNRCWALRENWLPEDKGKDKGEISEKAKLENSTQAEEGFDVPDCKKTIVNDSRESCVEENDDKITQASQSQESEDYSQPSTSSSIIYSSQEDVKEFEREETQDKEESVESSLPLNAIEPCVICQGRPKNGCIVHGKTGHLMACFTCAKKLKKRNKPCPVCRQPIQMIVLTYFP
- experimentalDetails: Inhibition test of MDM2-P53 (GST-MDM2, Biotin-P53, Anti-GST-Tb, SA-XL665)
- Assay type: binding
pIC50 values for the molecules below.
Reminder that pIC50 is minus the log10 of a molar concentration.

Some molecules with known pIC50 results, for comparison:
{"molecule": "COc1cc(C2CC2)ncc1-c1nc2c(n1C(C)C)[C@]1(C(=O)Nc3cc(Cl)ccc31)N(c1cc(Cl)ccc1C)C2=O [Example R-103]", "recordedMetric": "pIC50", "measured": 6.74}
{"molecule": "COc1cc(C(F)(F)F)ccc1-c1nc2c(n1C(C)C)[C@@]1(C(=O)Nc3cc(Cl)ccc31)N(c1cc(Cl)ccc1C)C2=O [Example S-85]", "recordedMetric": "pIC50", "measured": 8.48}
{"molecule": "COc1cc(N(C)C)ncc1-c1nc2c(n1C(C)C)[C@@]1(C(=O)Nc3cc(Cl)ccc31)N(c1cc(Cl)cnc1C)C2=O [Example S-155]", "recordedMetric": "pIC50", "measured": 9.02}

In plain terms, COc1ccc(C(=O)O)cc1-c1nc2c(n1C(C)C)C1(C(=O)Nc3cc(Cl)ccc31)N(c1cc(Cl)ccc1C)C2=O (stereo not shown) [Example 84] has a documented pIC50 of 8.42

In plain terms, COc1cc(N(C)C)c(C)cc1-c1nc2c(n1C(C)C)[C@]1(C(=O)Nc3cc(Cl)ccc31)N(c1cc(Cl)ccc1C)C2=O [Example R-91] has a documented pIC50 of 6.34

In plain terms, COc1ncc(-c2cc3c(n2C(C)C)[C@]2(C(=O)Nc4cc(Cl)ccc42)N(c2cc(Cl)ccc2C)C3=O)c(OC)n1 [Example R-50] has a documented pIC50 of 4.69

In plain terms, COc1cc(N)ccc1-c1nc2c(n1C(C)C)[C@@]1(C(=O)Nc3cc(Cl)ccc31)N(c1ccc(F)c(Cl)c1)C2=O [Example S-73] has a documented pIC50 of 8.96

In plain terms, CCOc1ncc(-c2nc3c(n2C(C)C)[C@]2(C(=O)Nc4cc(Cl)ccc42)N(c2cc(Cl)cnc2C)C3=O)c(OC)n1 [Example R-134] has a documented pIC50 of 6.49

In plain terms, CCOc1cc(OC)c(-c2nc3c(n2C(C)C)[C@@]2(C(=O)Nc4cc(Cl)ccc42)N(c2cccc(Cl)c2)C3=O)cn1 [Example S-102] has a documented pIC50 of 8.70

###

half-life values for the molecules below.
- experimentalDetails: Pharmacokinetics in ICR mice after intravenous and intragastric administration
- Format: in vivo
- appliedConditions: male, ICR, mouse, plasma, iv, 2 mg/kg, IV 2 mg/kg, ICR mice, individual animal; read-out: t1/2 (converted)
- Method: Experimental Example 3 Determination of the Pharmacokinetics of the Mdm2 Inhibitors of the Present Invention in Mice […] The collected plasma was stored at −80° C. before analysis. The plasma sample was analyzed by LC-MS/MS, and the sample was pretreated by protein precipitation method. […] The lowest quantification limit was 1 ng/mL. […]
Give the value, in units of h, as a plain number.

Some molecules with known half-life results, for comparison:
{"molecule": "COc1ncc(-c2nc3c(n2C(C)C)[C@@]2(C(=O)Nc4cc(Cl)ccc42)N(c2cccc(Cl)c2)C3=O)c(OC)n1", "half-life (h)": 1}
{"molecule": "COc1cc(OC)c(-c2nc3c(n2C(C)C)[C@@]2(C(=O)Nc4cc(Cl)ccc42)N(c2cc(Cl)ccc2C)C3=O)cn1", "half-life (h)": 1.15}
{"molecule": "COc1ncc(-c2nc3c(n2C(C)C)[C@H](c2ccc(Cl)cc2)N(c2cc(Cl)cn(C)c2=O)C3=O)c(OC)n1 [HDM201, reference compound]", "half-life (h)": 0.53}
{"molecule": "COc1cc(N(C)C)ccc1-c1nc2c(n1C(C)C)[C@@]1(C(=O)Nc3cc(Cl)ccc31)N(c1cc(Cl)ccc1C)C2=O", "half-life (h)": 1.86}
{"molecule": "COc1ncc(-c2nc3c(n2C(C)C)[C@@]2(C(=O)Nc4cc(Cl)ccc42)N(c2cc(Cl)ccc2C)C3=O)c(OC)n1", "half-life (h)": 0.84}

In plain terms, `COc1ccc(-c2nc3c(n2C(C)C)[C@@]2(C(=O)Nc4cc(Cl)ccc42)N(c2cc(Cl)ccc2C)C3=O)c(OC)c1` has a documented half-life of 1.4
